Please respond with reported peptide exchange yield for every item in the list.
molecular target: T1, HLA-A*02:01 (peptide-receptive MHC class I monomer after UV cleavage of the UV-sensitive ligand) (human); assay: UV ligand-exchange ELISA; exchange yield grade (+ >=10%, ++ >=20%, +++ >=50%, ++++ >=75%)
T1 construct: MHC monomers loaded by UV-ligand exchange and captured on streptavidin plates

Data request: Bench note: what peptide exchange yield did VLVEITDVDFAA [VLVEITDVDFAA (SEQ ID NO: 174)] show?
Data returned: ≥ 75%

Data request: Bench note: what peptide exchange yield did KMLEDDLKL [KMLEDDLKL (SEQ ID NO: 156)] show?
Data returned: 50 to 75%

Data request: Bench note: what peptide exchange yield did VLEAILPLV [VLEAILPLV (SEQ ID NO: 19)] show?
Data returned: ≥ 75%

Data request: Bench note: what peptide exchange yield did FLVEEIFQT [FLVEEIFQT (SEQ ID NO: 46)] show?
Data returned: 50 to 75%

Data request: Bench note: what peptide exchange yield did FLIDGSSSV [FLIDGSSSV (SEQ ID NO: 82)] show?
Data returned: 50 to 75%

Data request: Bench note: what peptide exchange yield did HLVPASWKL [HLVPASWKL (SEQ ID NO: 13)] show?
Data returned: 50 to 75%

Data request: Bench note: what peptide exchange yield did FLFDGSMSL [FLFDGSMSL (SEQ ID NO: 214)] show?
Data returned: 50 to 75%

Data request: Bench note: what peptide exchange yield did ILSPWGAEV [ILSPWGAEV (SEQ ID NO: 229)] show?
Data returned: ≥ 75%

Data request: Bench note: what peptide exchange yield did FLPETRIMTSV [FLPETRIMTSV (SEQ ID NO: 261)] show?
Data returned: ≥ 75%
